Attribution: patent US20240174675A1

assay: Pharmacokinetic profiling, plasma and lung levels after intratracheal or inhalation delivery in the mouse; format: in vivo; conditions: Mouse; Male; CD-1 strain; Intratracheal; 2 mg/kg; 1 mg/ml in PBS; Lung; read-out: AUC ratio
readoutKind: Kp
// no unit string in output, number only

Request: Fill blank: measured Kp of the compound CCCCCCN(Cc1cn(CCOCCOCCOC(=O)c2nc(C(F)(F)F)n3c2CN(C(=O)C[C@H](N)Cc2cc(F)c(F)cc2F)CC3)nn1)C[C@H](O)[C@@H](O)[C@H](O)[C@H](O)CO is ____.
Response: 1350

###

assay: Pharmacokinetic profiling, plasma and lung levels after intratracheal delivery in the rat; assay type: in vivo; settings: inhaled or intranasal, Male, Sprague Dawley strain, 2 mg/kg, 1 mg/ml in PBS, Plasma
readoutKind: Cmax (ng/mL)
Just the number please, in ng/mL, no unit attached.

Request: Fill blank: measured Cmax of the compound CCCCCCN(Cc1cn(CCOCCOCCOC(=O)c2nc(C(F)(F)F)n3c2CN(C(=O)C[C@H](N)Cc2cc(F)c(F)cc2F)CC3)nn1)C[C@H](O)[C@@H](O)[C@H](O)[C@H](O)CO is ____.
Response: 14700

###

experiment: Pharmacokinetic profiling, plasma and lung levels after intratracheal or inhalation delivery in the mouse; type: in vivo; settings: inhaled or intranasal; Mouse; Male; CD-1 strain; Inhalation; 10 mg/ml in PBS for 15 mins; Plasma
readoutKind: half-life (h)
Just the number please, in h, no unit attached.

Request: Fill blank: measured half-life of the molecule CCCCCCN(Cc1cn(CCOCCOCCOC(=O)c2nc(C(F)(F)F)n3c2CN(C(=O)C[C@H](N)Cc2cc(F)c(F)cc2F)CC3)nn1)C[C@H](O)[C@@H](O)[C@H](O)[C@H](O)CO [Compound 46] is ____.
Response: 1.5

###

assay: Pharmacokinetic profiling, plasma and lung levels after intratracheal or inhalation delivery in the mouse; format: in vivo; conditions: Mouse; Male; CD-1 strain; Intratracheal; 2 mg/kg; 1 mg/ml in PBS; Plasma; read-out: MRT0-inf
readoutKind: MRT inf (h)
Just the number please, in h, no unit attached.

Request: Fill blank: measured MRT inf of the compound CCCCCCN(Cc1cn(CCOCCOCCOC(=O)c2nc(C(F)(F)F)n3c2CN(C(=O)C[C@H](N)Cc2cc(F)c(F)cc2F)CC3)nn1)C[C@H](O)[C@@H](O)[C@H](O)[C@H](O)CO is ____.
Response: 1.88

###

test: Pharmacokinetic profiling, plasma and lung levels after intratracheal delivery in the rat; type: in vivo; conditions: inhaled or intranasal, Male, Sprague Dawley strain, 2 mg/kg, 1 mg/ml in PBS, Lung, read-out: AUC ratio
readoutKind: Kp
// no unit string in output, number only

Request: Fill blank: measured Kp of the molecule CCCCCCN(Cc1cn(CCOCCOCCOC(=O)c2nc(C(F)(F)F)n3c2CN(C(=O)C[C@H](N)Cc2cc(F)c(F)cc2F)CC3)nn1)C[C@H](O)[C@@H](O)[C@H](O)[C@H](O)CO is ____.
Response: 145

###

test: Pharmacokinetic profiling, plasma and lung levels after intratracheal or inhalation delivery in the mouse; assay type: in vivo; details: inhaled or intranasal; Mouse; Male; CD-1 strain; Inhalation; 10 mg/ml in PBS for 15 mins; Plasma
readoutKind: Tmax
Entry format: amount then unit.

Request: Fill blank: measured Tmax of the compound CCCCCCN(Cc1cn(CCOCCOCCOC(=O)c2nc(C(F)(F)F)n3c2CN(C(=O)C[C@H](N)Cc2cc(F)c(F)cc2F)CC3)nn1)C[C@H](O)[C@@H](O)[C@H](O)[C@H](O)CO is ____.
Response: 30 min
